Experiment: Oral bioavailability in CD-1 mouse at 5 mg/kg
Assay type: ADME, organism-based
Conditions: in vivo
MEASURED_PROPERTY: bioavailability
Write the figure, then the unit, nothing else.

The measured bioavailability associated with Cn1cc(Nc2ncc(C3CC3)c(NCCCNC(=O)C3CCC3)n2)cn1 reads 25%

###

Assay: Metabolic stability in human liver microsomes assessed as compound turnover after 40 mins
Format: ADME, Microsome
Conditions: read-out: Drug metabolism
MEASURED_PROPERTY: metabolised at 40 min (%)
Numbers only, in %.

Some compounds with recorded metabolised at 40 min:
| SMILES_NOTATION | UNIT_OF_MEASURE | metabolised at 40 min |
| --- | --- | --- |
| CC(C)n1cc(Nc2ncc(C3CC3)c(NCCCNC(=O)C3CCC3)n2)cn1 | % | 61 |
| O=C(NCCCNc1nc(Nc2cnn(C3CCOCC3)c2)ncc1C1CC1)C1CCC1 | % | 25 |
| O=C(NCCCNc1nc(Nc2ccc3c(c2)CN(C2CC2)CC3)ncc1C1CC1)C1CCC1 | % | 91 |
| O=C(NCCCNc1nc(Nc2cccc(-c3cnco3)c2)ncc1C1CC1)C1CCC1 | % | 26 |
| O=C(NCCCNc1nc(Nc2cnn(C3CC3)c2)ncc1C1CC1)C1CCC1 | % | 32 |
| CCn1cc(Nc2ncc(C3CC3)c(NCCCNC(=O)C3CCC3)n2)cn1 | % | 37 |
| O=C(NCCCNc1nc(Nc2ccc(N3CCOCC3)cc2)ncc1C1CC1)C1CCC1 | % | 18 |
| Cc1nn(C)c2cc(Nc3ncc(C4CC4)c(NCCCNC(=O)C4CCC4)n3)ccc12 | % | 86 |
| Cn1ncc2cc(Nc3ncc(C4CC4)c(NCCCNC(=O)C4CCC4)n3)ccc21 | % | 42 |
| O=C(NCCCNc1nc(Nc2cccc(Cn3cncn3)c2)ncc1C1CC1)C1CCC1 | % | 63 |

Take each entry in turn and give its metabolised at 40 min.
1. Cn1cc(Nc2ncc(C3CC3)c(NCCCNC(=O)C3CCC3)n2)cn1
2. CN1CCC(c2ccc(Nc3ncc(C4CC4)c(NCCCNC(=O)C4CCC4)n3)cc2)CC1
3. CC(C)N1CCC(n2cc(Nc3ncc(C4CC4)c(NCCCNC(=O)C4CCC4)n3)cn2)CC1
4. O=C(NCCCNc1nc(Nc2cnn(C3CCC3)c2)ncc1C1CC1)C1CCC1

A:
1. 0
2. 23
3. 24
4. 61

Dear reader, for each entry below, please note its metabolised at 40 min.
1. O=C(NCCCNc1nc(Nc2ccc(N3CCOCC3)nc2)ncc1C1CC1)C1CCC1
2. O=C(NCCCNc1nc(Nc2cccc(F)c2)ncc1C1CC1)C1CCC1

A:
1: 15; 2: 80

Go through the items and report each one's metabolised at 40 min.
1. O=C(NCCCNc1nc(Nc2cnn(CCN3CCOCC3)c2)ncc1C1CC1)C1CCC1
2. O=C(NCCCNc1nc(Nc2ccc(-n3cncn3)cc2)ncc1C1CC1)C1CCC1

A:
[46, 23]

According to the records, this compound O=C(NCCCNc1nc(Nc2cnn(C3CCCC3)c2)ncc1C1CC1)C1CCC1 displays metabolised at 40 min of 67

###

Target: Cyclin-dependent kinase 2 (Homo sapiens, UniProt P24941)
MEASURED_PROPERTY: pIC50
Give bare numbers, as −log10 of the molar value.

| SMILES_NOTATION | ASSAYED_TARGET | pIC50 |
| --- | --- | --- |
| O=C(NCCCNc1nc(Nc2ccc(N3CCOCC3)cc2)ncc1C1CC1)C1CCC1 | Cyclin-dependent kinase 2 (Homo sapiens, UniProt P24941) | 6.20 |

Okay, next one:
GET /value?item= Cn1cc(Nc2ncc(C3CC3)c(NCCCNC(=O)C3CCC3)n2)cn1 &field=pIC50 returns 6.96
